B1: Osa-1-4 twister ribozyme (parent)
chain: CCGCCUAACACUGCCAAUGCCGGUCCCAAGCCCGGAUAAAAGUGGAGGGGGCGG

# Variants of: B1
# Assay Notes: self-cleavage, relative activity (ratio to wild type); higher = more cleavage; co-transcriptional
# if value of self-cleavage reaches 0.05, tag Yes; if it stays below, tag No

CCGCCUAACACUGCUAAUGCCGGUCCCAAGCCCGGAUAAAUGUGGAGGGGGCGG
Yes

Next:
Can `CCGCCUAACACUGCCAAUGCCGGUCCCAAGCCCGUAUAAAAGUGAAGGGGGCGG` be said to have self-cleavage at or above 0.05?
Yes
